So I've got a bunch of compounds here, and I need their TGI values.
test system: HS 578T breast; assay: NCI tumour cell line growth inhibition, 48 h

The measured TGI associated with `COC(=O)c1cccc(OC)c1C#Cc1c(OC)cccc1OC` reads > 100 µM

Looking up `Cc1ccc2c(C(=O)c3c(C)n(CCN4CCOCC4)c4ccccc34)cccc2c1` , I see its TGI listed as 25.6 µM

Item: `CCOC(=O)c1[nH]c2cccc3c2c1CC[C@H](NC(=O)C(F)(F)F)C3=O` | TGI: 61.8 µM

Record summary for COC(=O)[C@H](C)NC(=O)[C@@H](OC)[C@@H]1Cc2cc3cc(OC4CC(OC5CC(O)C(O)C(C)O5)C(O)C(C)O4)c(C)c(O)c3c(O)c2C(=O)[C@H]1OC1CC(OC2CC(OC3CC(C)(O)C(O)C(C)O3)C(O)C(C)O2)C(O)C(C)O1 (stereo not given in full) : reported TGI = 2.17 µM

Record summary for `CCOC(=O)C(C(=O)OCC)C(=O)c1ccccc1C(=O)c1ccccc1` : reported TGI = > 100 µM

COC1=C2C=[N+](C)C3C(=C2C=CC1OC)Cc1cc2c(cc13)OCO2 (stereo not given) has a reported TGI of 51.2 µM

Sample `CC1(C)CC([P+](c2ccccc2)(c2ccccc2)c2ccccc2)=NN1` ; TGI observed: > 100 µM

GET /value?item= CCCCCN(CCCCC)CC(C)(C)C(O)c1ccc(OC)c2ccccc12 (stereo not given) &field=TGI returns 39.8 µM

Reported TGI of Nc1nc(=O)n(C2OC(CO)C(O)C2O)c2ncc(-c3ccc(-c4ccccc4)cc3)nc12 (stereo not given) : > 100 µM

// TGI value for `Cn1cnc2c(F)c(Nc3ccc(Br)cc3F)c(C(=O)NOCCO)cc21` : > 100 µM

TGI for `COc1c(Cl)ccc2c(-c3nc4cc(Cl)c(F)cc4s3)cc(=O)oc12` is > 100 µM

TGI measured on `Cc1cnccc1N=Nc1ccc(N(C)C)cc1` = > 100 µM

Noted for `NC(=Nc1ccccc1)c1ccccc1N` : its TGI reads > 100 µM

Entry `O=S(=O)(NC1=NCCN1C(=S)SN1CCn2c1nsc2=S)c1ccccc1Cl` ; TGI = > 100 µM

Looking up `O=C(CNc1ccc2c(=S)c3ccccc3[nH]c2c1)Nc1ccccc1-c1ccccc1NC(=O)CNc1ccc2c(=S)c3ccccc3[nH]c2c1` , I see its TGI listed as > 77.7 µM

Looking up `CCOc1nccc2c1nc(-c1nonc1N)n2CC` , I see its TGI listed as > 25 µM

Measured TGI, `Cc1cc(O)cc(O)c1C(=O)O[C@]1(C)C(=O)C=C2C=C(/C=C/C(=O)O)OC=C2C1=O` : > 100 µM

// recorded TGI for `COc1ccc2c(c1)c1nn(CCN3CCCCC3)c3ccc4c(=O)n(CCN(C)C)c(=O)n2c4c13` : 0.412 µM

Notebook: `Cc1cc(N(CCC#N)CCC#N)ccc1/C=C1\SC(=S)NC1=O` , TGI read as 85 µM

Quick note, TGI for `C=C(CNC(=O)c1ccccc1)c1ccc(C(=O)Nc2ccccc2N)cc1` landed at > 100 µM

----------
test system: 786-0 renal; experiment: NCI tumour cell line growth inhibition, 48 h
Please provide measured log10(TGI) for the entries that follow.
Please interpret these as log10 of TGI where TGI is in µM.

Entry Cc1c(O)c(OC2OC(CO)C(O)C(O)C2O)cc2c1C=C[C@@H]1[C@@]2(C)C(=O)C[C@]2(C)[C@@H]([C@@](C)(O)C(=O)CCC(C)(C)O)[C@H](O)C[C@@]12C (some centres undefined) ; log10(TGI) = 1.87

`NCCCN1CCN(CCCNc2nc3ccccc3c3[nH]c4ccccc4c23)CC1` has a reported log10(TGI) of 0.47

The recorded log10(TGI) for `CCC(=O)/C(=C\I)c1ccccc1` is 0.52

Entry `O=c1cccccc1[O-].O=c1cccccc1[O-].O=c1cccccc1[O-].[Ce+3]` — recorded log10(TGI) = 1.74

The molecule `Nc1ccc(C(OC(=O)c2cc3ccccc3c(Cc3c(O)c(C(=O)OC(c4ccc(N)cc4)(c4ccc(N)cc4)c4ccc(N)cc4)cc4ccccc34)c2O)(c2ccc(N)cc2)c2ccc(N)cc2)cc1` showed log10(TGI) equal to 1.31
